- STUDY SYSTEM: MERTK (UniProt Q12866)
- Sequence (Q12866 whole entry, looked up): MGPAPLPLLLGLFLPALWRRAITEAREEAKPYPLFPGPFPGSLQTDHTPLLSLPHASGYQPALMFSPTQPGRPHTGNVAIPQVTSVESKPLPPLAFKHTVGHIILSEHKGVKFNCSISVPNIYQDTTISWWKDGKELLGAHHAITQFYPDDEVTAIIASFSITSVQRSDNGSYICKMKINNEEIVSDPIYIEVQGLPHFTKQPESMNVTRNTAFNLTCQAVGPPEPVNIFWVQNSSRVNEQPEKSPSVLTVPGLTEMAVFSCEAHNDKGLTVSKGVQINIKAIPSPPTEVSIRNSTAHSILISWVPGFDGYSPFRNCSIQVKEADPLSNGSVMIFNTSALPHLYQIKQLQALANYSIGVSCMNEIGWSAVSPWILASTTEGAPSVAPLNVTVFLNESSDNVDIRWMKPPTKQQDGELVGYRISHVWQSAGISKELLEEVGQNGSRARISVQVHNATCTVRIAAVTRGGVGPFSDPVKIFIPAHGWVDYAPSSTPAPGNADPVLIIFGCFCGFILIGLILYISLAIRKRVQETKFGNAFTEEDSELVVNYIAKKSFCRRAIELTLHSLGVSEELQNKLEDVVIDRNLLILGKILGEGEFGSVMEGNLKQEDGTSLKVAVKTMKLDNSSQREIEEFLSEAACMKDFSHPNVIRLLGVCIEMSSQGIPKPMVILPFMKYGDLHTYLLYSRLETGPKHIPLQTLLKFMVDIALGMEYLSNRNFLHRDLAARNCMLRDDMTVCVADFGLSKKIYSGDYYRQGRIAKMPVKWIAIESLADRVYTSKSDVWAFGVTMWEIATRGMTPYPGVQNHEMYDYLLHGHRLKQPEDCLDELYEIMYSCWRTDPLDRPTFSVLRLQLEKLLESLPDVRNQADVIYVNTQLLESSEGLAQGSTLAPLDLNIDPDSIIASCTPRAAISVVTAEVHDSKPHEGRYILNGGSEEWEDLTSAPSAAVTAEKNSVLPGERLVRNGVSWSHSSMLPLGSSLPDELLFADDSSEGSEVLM
- ASSAY NOTES: phosphorylation enrichment, bacterial display (enrichment ratio); higher = better substrate or ligand; peptides without Tyr show the background;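 note: 11-residue human phosphosite peptides and single-mutation variants displayed on the E. coli surface, counted by deep sequencing, each peptide's frequency after selection divided by its frequency in the unselected input library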;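 note: frequency after pTyr selection over input frequency; kinase dosed for 20-30% of maximal phosphorylation in three min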
PARAMETER MEASURED: phosphorylation enrichment
API note: the answer field is a bare number with no unit suffix.

Guide cases for phosphorylation enrichment, answers given:
{"columns": ["SEQ", "phosphorylation enrichment"],
 "data": [
  ["TSGVVYKARNK [CDK2_Y19_Y15S]", 0.479],
  ["VKRNRYKDILP [PTPN12_Y64_K61R]", 0.553],
  ["TQFWRYFAGNL [SLC25A5_Y112_L111R]", 0.433],
  ["EDASEYYENYI [PARP4_Y214_F215Y]", 0.467]
]}

# get_value(readout='phosphorylation enrichment', item= MKKKIYAMGGG [GAN_Y424] ) 0.432

Similarly, VVIMLYGVDSR [PKD1_Y3143_G3139V] ? 0.399

Similarly, CLAKMYFSAVD [CP_Y539_YF] ? 0.414

Similarly, REAAAYLHGRL [AGXT_Y297] ? 0.584

Similarly, MHFSNYVSKGS [PDGFRA_Y849_D846Y_YF] ? 0.381

Similarly, RLASVYTKRCS [CPT2_Y508_P504L] ? 0.316

Similarly, AIGCEYSEINI [SIGLEC12_Y588_Y586C] ? 0.492

Similarly, ITNHIYTWVDP [DFNB31_Y234_V229I] ? 8.78

Similarly, HSGVSYYINLC [IGF2R_Y2024_N2020S] ? 0.563
